Origin of measurements: patent US20100004431A1

Let's look at some binders and their measured koff.
Molecular target: TNFα (UniProt P01375 77-233)
Sequence (P01375 77-233 limits assumed): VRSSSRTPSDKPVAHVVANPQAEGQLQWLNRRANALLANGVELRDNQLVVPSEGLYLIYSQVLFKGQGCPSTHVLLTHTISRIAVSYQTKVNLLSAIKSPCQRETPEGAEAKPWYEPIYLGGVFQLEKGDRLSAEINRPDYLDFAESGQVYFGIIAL
Experiment: SPR (Biacore), TNFα on CM5 chip, Fab injected; mean of two runs ± SD
The reply should contain only the number, in s⁻¹.

binder: Anti-TNFα H1.45L1.33 (Fab, V domains shown, Fab format) VH: EVQLVESGGGLVQPGGSLKLSCAASGFIFSNHWMNWVRQASGKGLEWVGEIRSKAINYATHYAESVKGRFTISRDDSKSIVYLQMNSLKTEDTAVYYCSRNYYGSTYDYWGQGTLVTVSS VL: EIVLTQSPDFQSVTPKEKVTITCRASQFIGSSLHWYQQKPDQSPKLLIKYASESFSGVPSRFSGSGSGTDFTLTINSLEAEDAATYYCQQSHSWPFTFGSGTKLEIK
measurement kind: koff
unit info: s⁻¹
reported result: 0.00087

Here is another binder to look at.
**Q:** Name the recorded koff of the item Anti-TNFα H1.67L1.33 (Fab, V domains shown, Fab format) VH: EVQLVESGGGLVQPGGSLKLSCAASGFTFSNHWMNWVRQASGKGLEWVGEIRSKAISYATHYAASVKGRFTISRDDSKNTAYLQMNSLKTEDTAVYYCSRNYYGSTYDYWGQGTLVTVSS VL: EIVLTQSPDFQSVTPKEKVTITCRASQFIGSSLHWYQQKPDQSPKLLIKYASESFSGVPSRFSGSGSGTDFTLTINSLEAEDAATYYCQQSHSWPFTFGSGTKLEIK in your answer.
**A:** 0.000776
